Organism: Rattus norvegicus
Protocol Description: DrugMatrix - Regimen: Daily Repeat
Assay type: toxicity, organism-based, Sprague-Dawley
Set-up: regimen Daily Repeat, gender Male, age 6-8 weeks
Measurement Conditions: in vivo, po, 0 mg/kg, 120 h, tissue Plasma, route oral GAVAGE, dose level Control, time 5 day, […]
Readout Name: BLOOD UREA NITROGEN (mg/dL)
The answer is to be given in mg/dL; state only the numeric part.

Some solved entries appear below for comparison.
Compound	Recorded Measurement
C[C@H]1O[C@@H](O[C@H]2[C@@H](O)C[C@H](O[C@H]3[C@@H](O)C[C@H](O[C@H]4CC[C@@]5(C)[C@H](CC[C@@H]6[C@@H]5C[C@@H](O)[C@]5(C)[C@@H](C7=CC(=O)OC7)CC[C@]65O)C4)O[C@@H]3C)O[C@@H]2C)C[C@H](O)[C@@H]1O [DIGOXIN]	15.5
C[C@@H]1CN(c2c(F)c(N)c3c(=O)c(C(=O)O)cn(C4CC4)c3c2F)C[C@H](C)N1 [SPARFLOXACIN]	14.67
CCOC(=O)C1=C(COCCN)NC(C)=C(C(=O)OC)C1c1ccccc1Cl (configuration not stated) [AMLODIPINE]	14.67
O=C(O)CCCc1ccc(N(CCCl)CCCl)cc1 [CHLORAMBUCIL]	16

Could you please provide reported BLOOD UREA NITROGEN for Cc1noc(NS(=O)(=O)c2ccc(N)cc2)c1C [SULFISOXAZOLE] ? Thanks!
16.83

Return value of BLOOD UREA NITROGEN for input Cc1ccc(-c2cc(C(F)(F)F)nn2-c2ccc(S(N)(=O)=O)cc2)cc1 [CELECOXIB] , no commentary.
16

Write down BLOOD UREA NITROGEN measured for item CC(C)C(=O)Nc1ccc([N+](=O)[O-])c(C(F)(F)F)c1 [FLUTAMIDE]
14

====

Species on record: Rattus norvegicus
Protocol Description: DrugMatrix - Regimen: Daily Repeat
Format: toxicity, organism-based, Sprague-Dawley
Set-up: regimen Daily Repeat, gender Male, age 6-8 weeks
Measurement Conditions: in vivo, po, 0 mg/kg, […], tissue Blood, route oral GAVAGE, dose level Control, time 14 day, vehicle 100 % WATER
Readout Name: ABSOLUTE LYMPHOCYTE (cells/µL)
Respond with the bare value in cells/µL.

Answer with reported ABSOLUTE LYMPHOCYTE of COCCc1ccc(OCC(O)CNC(C)C)cc1 (stereo unspecified)
9510

====

In this section we review reported MEAN CORPUSCULAR HEMOGLOBIN values for a set of compounds.
Species on record: Rattus norvegicus
Protocol Description: DrugMatrix - Regimen: Daily Repeat
Format: toxicity, organism-based, Sprague-Dawley
Design: regimen Daily Repeat, gender Male, age 6-8 weeks
Measurement Conditions: in vivo, iv, 0 mg/kg, 120 h, tissue Blood, dose level Control, time 5 day, vehicle 100 % SALINE
Starred links: 1 amine or outer side, 2 acyl side, 3 side chain; linkers in the order of their positions; H or OH if unused. Positions of bridges follow the written chain, without caps; N, C: chain ends. Non-standard residues stand in square brackets, D forms with d. Residues, ends and D or L forms follow the SMILES beside them. Chains are numbered I, II in the order given. Actinocin(9to1) = Cc1c2oc3c(C)ccc(C(=O)[*:1])c3nc-2c(C(=O)[*:2])c(N)c1=O; NMeV = CN[C@H](C(=O)O)C(C)C; Sar = CNCC(=O)O
Note: a bare number is incomplete; add the unit.

Field: example entries. Status: answers known.
Compound	MEAN CORPUSCULAR HEMOGLOBIN
Cc1c2oc3c(C)ccc(C(=O)N[C@@H]4C(=O)N[C@H](C(C)C)C(=O)N5CCC[C@H]5C(=O)N(C)CC(=O)N(C)[C@@H](C(C)C)C(=O)O[C@@H]4C)c3nc-2c(C(=O)N[C@@H]2C(=O)N[C@H](C(C)C)C(=O)N3CCC[C@H]3C(=O)N(C)CC(=O)N(C)[C@@H](C(C)C)C(=O)O[C@@H]2C)c(N)c1=O [DACTINOMYCIN] (I: T[dV]P[Sar][NMeV] / II: T[dV]P[Sar][NMeV]; ester I:1-I:C, II:1-II:C; linker I:N-II:N via Actinocin(9to1))	24.68 pg
COc1cc2c3cc1Oc1cc(ccc1O)C[C@@H]1c4c(cc(OC)c(O)c4Oc4ccc(cc4)C[C@@H]3N(C)CC2)CC[N+]1(C)C.[Cl-]	24.92 pg
CC[C@]1(O)C[C@H]2CN(CCc3c([nH]c4ccccc34)[C@@](C(=O)OC)(c3cc4c(cc3OC)N(C=O)[C@H]3[C@@](O)(C(=O)OC)[C@H](OC(C)=O)[C@]5(CC)C=CCN6CC[C@]43[C@@H]65)C2)C1	24.38 pg

# context switch: different compound, same MEAN CORPUSCULAR HEMOGLOBIN
Read off the recorded MEAN CORPUSCULAR HEMOGLOBIN for Cc1ccc(N(CC2=NCCN2)c2cccc(O)c2)cc1
22.67 pg

====

Organism: Rattus norvegicus
Protocol Description: DrugMatrix - Regimen: Daily Repeat
Assay type: toxicity, organism-based, Sprague-Dawley
Set-up: regimen Daily Repeat, gender Male, age 6-8 weeks
Measurement Conditions: in vivo, iv, 0 mg/kg, 120 h, tissue Blood, dose level Control, time 5 day, vehicle 100 % SALINE
Starred links: 1 amine or outer side, 2 acyl side, 3 side chain; linkers in the order of their positions; H or OH if unused. Positions of bridges follow the written chain, without caps; N, C: chain ends. Non-standard residues stand in square brackets, D forms with d. Residues, ends and D or L forms follow the SMILES beside them. Chains are numbered I, II in the order given. Actinocin(9to1) = Cc1c2oc3c(C)ccc(C(=O)[*:1])c3nc-2c(C(=O)[*:2])c(N)c1=O; NMeV = CN[C@H](C(=O)O)C(C)C; Sar = CNCC(=O)O
Below: a set of entries, each annotated with reported HEMATOCRIT.
Give a bare numeral; the unit % is implied.

In the examples that follow, each entry is paired with its recorded HEMATOCRIT.
Compound	HEMATOCRIT [%]
COc1cc2c3cc1Oc1cc(ccc1O)C[C@@H]1c4c(cc(OC)c(O)c4Oc4ccc(cc4)C[C@@H]3N(C)CC2)CC[N+]1(C)C.[Cl-]	34.3
Cc1c2oc3c(C)ccc(C(=O)N[C@@H]4C(=O)N[C@H](C(C)C)C(=O)N5CCC[C@H]5C(=O)N(C)CC(=O)N(C)[C@@H](C(C)C)C(=O)O[C@@H]4C)c3nc-2c(C(=O)N[C@@H]2C(=O)N[C@H](C(C)C)C(=O)N3CCC[C@H]3C(=O)N(C)CC(=O)N(C)[C@@H](C(C)C)C(=O)O[C@@H]2C)c(N)c1=O [DACTINOMYCIN] (I: T[dV]P[Sar][NMeV] / II: T[dV]P[Sar][NMeV]; ester I:1-I:C, II:1-II:C; linker I:N-II:N via Actinocin(9to1))	35.02
CC[C@]1(O)C[C@H]2CN(CCc3c([nH]c4ccccc34)[C@@](C(=O)OC)(c3cc4c(cc3OC)N(C=O)[C@H]3[C@@](O)(C(=O)OC)[C@H](OC(C)=O)[C@]5(CC)C=CCN6CC[C@]43[C@@H]65)C2)C1	34.17

# input for lookup
Check the records and state HEMATOCRIT for Cc1ccc(N(CC2=NCCN2)c2cccc(O)c2)cc1
36.58

====

Organism: Rattus norvegicus
Protocol Description: DrugMatrix - Regimen: Daily Repeat
Type: toxicity, organism-based, Sprague-Dawley
Design: regimen Daily Repeat, gender Male, age 6-8 weeks
Measurement Conditions: in vivo, iv, 0 mg/kg, 72 h, tissue Blood, dose level Control, time 3 day, vehicle 100 % SALINE
Starred links: 1 amine or outer side, 2 acyl side, 3 side chain; linkers in the order of their positions; H or OH if unused. Positions of bridges follow the written chain, without caps; N, C: chain ends. Non-standard residues stand in square brackets, D forms with d. Residues, ends and D or L forms follow the SMILES beside them. Chains are numbered I, II in the order given. Actinocin(9to1) = Cc1c2oc3c(C)ccc(C(=O)[*:1])c3nc-2c(C(=O)[*:2])c(N)c1=O; NMeV = CN[C@H](C(=O)O)C(C)C; Sar = CNCC(=O)O
Readout Name: ERYTHROCYTE COUNT (x10E6/uL)
Response body: numeric value in x10E6/uL, unit text excluded.

Check out these entries, answers already filled in.
Molecule	Units Of Measure	ERYTHROCYTE COUNT
COc1cc2c3cc1Oc1cc(ccc1O)C[C@@H]1c4c(cc(OC)c(O)c4Oc4ccc(cc4)C[C@@H]3N(C)CC2)CC[N+]1(C)C.[Cl-]	x10E6/uL	5.46
CC[C@]1(O)C[C@H]2CN(CCc3c([nH]c4ccccc34)[C@@](C(=O)OC)(c3cc4c(cc3OC)N(C=O)[C@H]3[C@@](O)(C(=O)OC)[C@H](OC(C)=O)[C@]5(CC)C=CCN6CC[C@]43[C@@H]65)C2)C1	x10E6/uL	5.38
Cc1c2oc3c(C)ccc(C(=O)N[C@@H]4C(=O)N[C@H](C(C)C)C(=O)N5CCC[C@H]5C(=O)N(C)CC(=O)N(C)[C@@H](C(C)C)C(=O)O[C@@H]4C)c3nc-2c(C(=O)N[C@@H]2C(=O)N[C@H](C(C)C)C(=O)N3CCC[C@H]3C(=O)N(C)CC(=O)N(C)[C@@H](C(C)C)C(=O)O[C@@H]2C)c(N)c1=O [DACTINOMYCIN] (I: T[dV]P[Sar][NMeV] / II: T[dV]P[Sar][NMeV]; ester I:1-I:C, II:1-II:C; linker I:N-II:N via Actinocin(9to1))	x10E6/uL	5.18

Turning now to a further molecule:
Determine from records and report ERYTHROCYTE COUNT for Cc1ccc(N(CC2=NCCN2)c2cccc(O)c2)cc1
5.57

Ref: ChEMBL document CHEMBL3885881
